- Assayed target: ITK (Homo sapiens)
- Sequence (Q08881 1-620): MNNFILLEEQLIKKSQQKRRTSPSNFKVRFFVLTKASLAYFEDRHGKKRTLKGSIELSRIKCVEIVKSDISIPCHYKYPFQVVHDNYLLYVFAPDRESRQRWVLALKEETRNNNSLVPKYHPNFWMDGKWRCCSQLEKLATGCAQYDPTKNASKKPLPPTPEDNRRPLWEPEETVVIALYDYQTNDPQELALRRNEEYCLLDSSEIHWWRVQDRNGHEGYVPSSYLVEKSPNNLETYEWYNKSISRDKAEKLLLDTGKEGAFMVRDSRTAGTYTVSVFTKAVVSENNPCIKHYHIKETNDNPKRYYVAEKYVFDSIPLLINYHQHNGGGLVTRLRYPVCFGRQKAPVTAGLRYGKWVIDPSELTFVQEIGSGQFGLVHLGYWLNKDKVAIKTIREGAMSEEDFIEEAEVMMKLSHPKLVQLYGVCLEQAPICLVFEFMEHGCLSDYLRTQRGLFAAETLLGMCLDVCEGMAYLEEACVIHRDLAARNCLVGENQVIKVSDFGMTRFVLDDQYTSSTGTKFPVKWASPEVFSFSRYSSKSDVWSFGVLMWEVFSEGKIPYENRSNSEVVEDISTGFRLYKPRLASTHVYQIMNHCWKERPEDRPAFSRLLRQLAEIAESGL
- Experimental details: Inhibition of a panel of kinases, in vitro HotSpot kinase assay: ITK
- Type: biochemical
- Test conditions: E compounds, Table 17
pIC50: −log10 of the molar value.
Measurement kind: pIC50

smiles_notation=C=CC(=O)N1CCC[C@@H](Nc2nnc(C(N)=O)c(Nc3ccc(CN[C@@H](C)C(C)(C)C)cc3)n2)C1 measurement_kind=pIC50 result_value="≥ 8.00"
smiles_notation=CN(c1cnc(C(N)=O)c(Nc2ccc(C3(C)CCN(C4CCCC4)CC3)cc2)n1)[C@@H]1CCN(C(=O)C(F)(F)F)C1 measurement_kind=pIC50 result_value="≥ 8.00"
smiles_notation=C=CC(=O)N1CC[C@@H](N(C)c2cnc(C(N)=O)c(Nc3ccc(-n4nccn4)cc3)n2)C1 measurement_kind=pIC50 result_value="≥ 8.00"
smiles_notation=C=CC(=O)N1CCC[C@@H](Nc2nnc(C(N)=O)c(Nc3cccc(C(=O)OCC)c3)n2)C1 measurement_kind=pIC50 result_value="6.00 to 7.00"

====

- Assayed target: BTK-WT (Homo sapiens)
- Construct: purified from insect cells as a full-length construct containing an N-terminal 6X-His tag; His6 (N); made in house; host or cells: insect cells (baculovirus Sf21 in Method B)
- Sequence (Q06187 whole entry): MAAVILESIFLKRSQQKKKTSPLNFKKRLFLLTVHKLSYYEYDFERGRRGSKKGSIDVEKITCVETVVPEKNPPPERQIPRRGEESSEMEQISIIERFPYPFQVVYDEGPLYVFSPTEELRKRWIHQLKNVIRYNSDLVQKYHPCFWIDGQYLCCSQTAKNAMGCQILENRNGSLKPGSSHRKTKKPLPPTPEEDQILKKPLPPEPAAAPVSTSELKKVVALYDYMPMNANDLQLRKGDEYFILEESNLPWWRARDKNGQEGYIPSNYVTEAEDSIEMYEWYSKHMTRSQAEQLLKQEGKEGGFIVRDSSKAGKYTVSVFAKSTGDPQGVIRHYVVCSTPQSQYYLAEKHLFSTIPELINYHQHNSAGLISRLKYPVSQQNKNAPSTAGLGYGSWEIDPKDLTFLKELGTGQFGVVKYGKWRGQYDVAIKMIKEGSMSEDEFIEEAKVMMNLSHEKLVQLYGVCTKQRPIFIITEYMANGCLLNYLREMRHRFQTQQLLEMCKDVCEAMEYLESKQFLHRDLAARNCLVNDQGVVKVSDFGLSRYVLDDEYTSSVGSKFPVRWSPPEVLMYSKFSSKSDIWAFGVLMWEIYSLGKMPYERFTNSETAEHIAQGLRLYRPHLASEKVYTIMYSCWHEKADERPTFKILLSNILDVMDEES
- Experimental details: Btk in vitro inhibitory activity (one of Method A TR-FRET, Method B electrophoretic mobility shift, Method C radiometric filter binding)
- Format: biochemical
- Test conditions: D-compounds panel data; read-out: IC50 BTK-WT
Listed here: items and their measured IC50.
Measurement kind: IC50

compound=Cc1cc(Nc2nc(N3CCC[C@@H](c4ncc(-c5ccc(C6CC6)cc5)[nH]4)[C@H]3C)cnc2C(N)=O)sn1 result_value="0.01 to 0.1 µM"
compound=Cc1ccc(-c2cnc([C@@H]3CCCN(c4cnc(C(N)=O)c(Nc5cc(C)ns5)n4)C3)[nH]2)cc1 result_value="0.01 to 0.1 µM"
compound=C[C@@H]1[C@H](NC(=O)c2ccc(C3CC3)cc2F)CCCN1c1cnc(C(N)=O)c(Nc2cc(CN(C)C)ns2)n1 result_value="≤ 0.01 µM"
compound=C[C@@H]1[C@H](NC(=O)c2ccc(C3CC3)cc2F)CCCN1c1cnc(C(N)=O)c(Nc2ccc(CN3CCN(C)CC3)cc2)c1 result_value="≤ 0.01 µM"
compound=Cn1cc(Nc2nc(N3CCC[C@@H](n4ccc5cc(C6CC6)ccc5c4=O)C3)nnc2C(N)=O)cn1 result_value="≤ 0.01 µM"
compound=Cn1cc(Nc2nc(N3CCC[C@H]4[C@@H]3CCN4C(=O)c3ccc(C4CC4)cc3)cnc2C(N)=O)cn1 result_value="0.01 to 0.1 µM"
compound=C[C@@H]1[C@H](NC(=O)c2ccc(C3CC3)cc2)CCCN1c1cnc(C(N)=O)c(NCC2=CCN(C)CC2)n1 result_value="> 10 µM"
compound=C[C@@H]1[C@H](NC(=O)N(C)C)CCCN1c1cnc(C(N)=O)c(Nc2ccc(N3CCN(C)CC3)cc2)n1 result_value="≤ 0.01 µM"
compound=Cc1cc(Nc2nc(N3CCC[C@@H](NC(=O)N4Cc5ccccc5C4=O)C3)cnc2C(N)=O)sn1 result_value="≤ 0.01 µM"
compound=C[C@@H]1[C@H](NC(=O)N(C)C)CCCN1c1cnc(C(N)=O)c(Nc2cc(C3CCN(C4CCCC4)CC3)ns2)n1 result_value="≤ 0.01 µM"
compound=Cc1nc2cc(C(=O)N[C@@H]3CCCN(c4cnc(C(N)=O)c(Nc5cnn(C)c5)n4)[C@@H]3C)ccc2[nH]1 result_value="≤ 0.01 µM"
compound=CC(C)n1nnc2cc(C(=O)N[C@@H]3CCCN(c4cnc(C(N)=O)c(Nc5cnn(C)c5)n4)[C@@H]3C)ccc21 result_value="≤ 0.01 µM"
compound=C[C@@H]1[C@H](NC(=O)c2ccc(C3CC3)cc2)CCCN1c1cnc(C(N)=O)c(Nc2cnn(C)c2C(F)(F)F)n1 result_value="1 to 10 µM"
compound=Cc1ccc(-c2cnc([C@@H]3CCCN(c4cnc(C(N)=O)c(Nc5cc(C)ns5)n4)[C@@H]3C)[nH]2)cc1 result_value="0.01 to 0.1 µM"
compound=C[C@@H]1[C@H](NC(=O)c2ccc(C(C)(C)O)cc2)CCCN1c1cnc(C(N)=O)c(Nc2cnn(C)c2)n1 result_value="≤ 0.01 µM"
compound=CC(=O)N1CCC(n2cc(Nc3nc(N4CCC[C@@H](NC(=O)c5ccc(C6CC6)cc5)[C@H]4C)cnc3C(N)=O)cn2)CC1 result_value="≤ 0.01 µM"
compound=C[C@@H]1[C@H](NC(=O)c2ccc(S(C)(=O)=O)cc2)CCCN1c1cnc(C(N)=O)c(Nc2ccc(N3CCN(C)CC3)cc2)n1 result_value="≤ 0.01 µM"
compound=Cc1cc(Nc2nc(N3C[C@H](NC(=O)N(C)C)CC[C@H]3C)cnc2C(N)=O)sn1 result_value="0.1 to 1 µM"
compound=C[C@@H]1[C@H](NC(=O)c2ccc(C(C)(C)C#N)cc2)CCCN1c1cnc(C(N)=O)c(Nc2cnn(C)c2)n1 result_value="≤ 0.01 µM"
compound=Cc1cc(Nc2nc(N3C[C@H](NC(=O)N(C)C)CC[C@@H]3C)cnc2C(N)=O)sn1 result_value="0.1 to 1 µM"
compound="Cn1cc(Nc2nc(N3C4CCC(NC(=O)c5ccc(C6CC6)cc5)C3CC4)cnc2C(N)=O)cn1 (single isomer, unassigned) [Example D-201]" result_value="≤ 0.01 µM"
compound=C[C@@H]1[C@H](NC(=O)c2cc(C(C)(C)C)on2)CCCN1c1cnc(C(N)=O)c(Nc2cnn(C)c2)n1 result_value="≤ 0.01 µM"
compound="C[C@@H]1[C@H](NC(=O)c2ccc(C3CC3)cc2)CCCN1c1cnc(C(N)=O)c(Nc2ccc(OC3C[C@H]4CC[C@@H](C3)N4C)cc2)n1 (stereo partly drawn) [Example D-106]" result_value="≤ 0.01 µM"
compound=C[C@@H]1CC[C@H](NC(=O)c2ccc(C3CC3)cc2)CN1c1cnc(C(N)=O)c(Nc2ccc(N3CCN(C)CC3)c(F)c2)n1 result_value="0.01 to 0.1 µM"
compound=C[C@@H]1[C@H](NC(=O)c2ccc(C3CC3)cc2F)CCCN1c1cnc(C(N)=O)c(Nc2ccc3cccnc3c2)n1 result_value="0.01 to 0.1 µM"
compound=CN(C)C(=O)N[C@@H]1CCCN(c2cnc(C(N)=O)c(Nc3ccc(C4(C)CCN(C5CCCC5)CC4)cc3)n2)[C@@H]1CO result_value="≤ 0.01 µM"
compound=C[C@@H]1[C@H](NC(=O)c2ccc(C3CC3)cc2)CCCN1c1cnc(C(N)=O)c(Nc2cnn(C3CCN(C)CC3)c2)n1 result_value="≤ 0.01 µM"

====

- Assayed target: UniProt Q08881
- Experimental details: Inhibition of a panel of kinases, in vitro HotSpot kinase assay: ITK
- Type: biochemical
- Test conditions: E compounds, Table 17
pIC50: −log10 of the molar value.
# maps each entry to its pIC50
Measurement kind: pIC50

smiles_notation=C=CC(=O)N1CCC[C@@H](Nc2nnc(C(N)=O)c(Nc3ccc4ncsc4c3)n2)C1 assayed_target="UniProt Q08881" measurement_kind=pIC50 result_value="≥ 8.00"
smiles_notation=C=CC(=O)N1CCC[C@@H](Nc2nnc(C(N)=O)c(Nc3ccc(-n4cncn4)cc3)n2)C1 assayed_target="UniProt Q08881" measurement_kind=pIC50 result_value="7.00 to 8.00"
smiles_notation=C=CC(=O)N1CCC[C@@H](Nc2nnc(C(N)=O)c(Nc3cccc(C(=O)N(C)C)c3)n2)C1 assayed_target="UniProt Q08881" measurement_kind=pIC50 result_value="7.00 to 8.00"
smiles_notation=C[C@@H]1[C@H](NC(=O)c2ccc(C(=O)N(C)C)cc2)CCCN1c1cnc(C(N)=O)c(Nc2cnn(C)c2)n1 assayed_target="UniProt Q08881" measurement_kind=pIC50 result_value="6.00 to 7.00"
